Reported IC50 values are given for each entry in this list.
MEASURED_TARGET: IDH1-R132C recombinant protein (Homo sapiens (Human), UniProt O75874, R132C)
Sequence (O75874 whole entry R132C): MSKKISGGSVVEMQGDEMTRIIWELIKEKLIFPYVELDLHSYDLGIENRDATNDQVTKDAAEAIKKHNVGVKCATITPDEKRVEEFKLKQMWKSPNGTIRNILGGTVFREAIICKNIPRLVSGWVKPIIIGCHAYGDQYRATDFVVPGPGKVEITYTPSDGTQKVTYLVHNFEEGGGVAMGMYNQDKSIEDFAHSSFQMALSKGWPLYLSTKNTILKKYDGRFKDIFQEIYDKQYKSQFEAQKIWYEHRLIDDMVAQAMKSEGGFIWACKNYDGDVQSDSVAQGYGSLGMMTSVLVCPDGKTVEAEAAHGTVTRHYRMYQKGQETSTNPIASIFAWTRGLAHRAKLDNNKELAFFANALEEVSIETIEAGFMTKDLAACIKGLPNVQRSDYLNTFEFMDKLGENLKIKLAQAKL
PROTOCOL: IDH1-R132C enzymatic assay (inhibition of NADPH consumption, diaphorase/resazurin readout)
APPLIED_CONDITIONS: read-out: Enzyme IDH1 R132C IC50 (Range)

Quick one: IC50 of CNC(=O)c1ccnc(N[C@@H](C)c2cc3cc(Cl)ccc3[nH]c2=O)n1 [Compound I-115] ?
0.1 to 1 µM

Quick one: IC50 of Cc1cccn1-c1ccnc(N[C@@H](C)c2cc3cc(Cl)ccc3[nH]c2=O)n1 [Compound I-51] ?
0.1 to 1 µM

Quick one: IC50 of COc1nc(NC(C)c2cc3cc(Cl)c(F)cc3[nH]c2=O)ncc1C#N (centres unmarked) [Compound I-142] ?
0.1 to 1 µM

Quick one: IC50 of COc1nc(N[C@@H](C)c2nc3cc(Cl)ccc3[nH]c2=O)ncc1C#N [Compound I-156] ?
0.1 to 1 µM

Quick one: IC50 of CC(C)n1cncc1-c1ccnc(N[C@@H](C)c2cc3cc(Cl)ccc3[nH]c2=O)n1 [Compound I-64] ?
0.1 to 1 µM

Quick one: IC50 of COc1nc(N[C@@H](C)c2cc3cc(Cl)cc(F)c3[nH]c2=O)ncc1C#N [Compound I-161] ?
0.1 to 1 µM

Quick one: IC50 of C[C@H](Nc1nccc(-n2nnnc2C2CC2)n1)c1cc2cc(Cl)ccc2[nH]c1=O [Compound I-183] ?
< 0.1 µM

Quick one: IC50 of Cc1oncc1-c1ccnc(N[C@@H](C)c2cc3cc(Cl)ccc3[nH]c2=O)n1 [Compound I-58] ?
1 to 10 µM

Quick one: IC50 of CC(C)n1nccc1-c1ccnc(N[C@@H](C)c2cc3cc(Cl)ccc3[nH]c2=O)n1 [Compound I-75] ?
0.1 to 1 µM

* * *

MEASURED_TARGET: IDH1-R132C recombinant protein (Homo sapiens (Human), UniProt O75874, R132C)
PROTOCOL: IDH1-R132C enzymatic assay (inhibition of NADPH consumption, diaphorase/resazurin readout)
Format: biochemical
APPLIED_CONDITIONS: read-out: Enzyme IDH1 R132C IC50 (Range)
Reported IC50 values are given for each entry in this list.

Quick one: IC50 of C[C@H](Nc1nccc(-c2cnn(C)c2)n1)c1cc2cc(Cl)ccc2[nH]c1=O ?
1000 to 10000 nM

Quick one: IC50 of COC(=O)Nc1ccnc(N[C@@H](C)c2cc3cc(Cl)ccc3[nH]c2=O)n1 ?
100 to 1000 nM

Quick one: IC50 of COc1nc(NC2(c3cc4cc(Cl)ccc4[nH]c3=O)CC2)ncc1C#N ?
1000 to 10000 nM

Quick one: IC50 of CC(Nc1nccc(N(C(C)C)S(C)(=O)=O)n1)c1cc2cc(Cl)ccc2[nH]c1=O (centres unmarked) ?
100 to 1000 nM

Quick one: IC50 of C[C@H](Nc1nccc(-n2cnc3c2CCC3)n1)c1cc2cc(Cl)ccc2[nH]c1=O ?
100 to 1000 nM

New cases:
Quick one: IC50 of Cc1cnccc1-c1ccnc(N[C@@H](C)c2cc3cc(Cl)ccc3[nH]c2=O)n1 ?
100 to 1000 nM

Quick one: IC50 of C[C@H](Nc1nccc(N2CCOC2=O)n1)c1cc2cc(Cl)ccc2[nH]c1=O ?
< 100 nM

Quick one: IC50 of CC(C)CS(=O)(=O)N(c1ccnc(N[C@@H](C)c2cc3cc(Cl)ccc3[nH]c2=O)n1)C(C)C ?
100 to 1000 nM

* * *

System: HCT116 isogenic IDH1-R132C mutant cells
PROTOCOL: Cellular 2-HG assay using HCT116 mutant IDH1 cells (R132C), RapidFire mass spectrometry
Assay type: cell-based
APPLIED_CONDITIONS: Homo sapiens, HCT-116; cellular 2-HG level, HCT116 IDH1-R132C cells, 24 hours; read-out: HCT116 IDH1 R132C IC50 (Range)
Reported IC50 values are given for each entry in this list.

Some solved cases for reference:
Quick one: IC50 of Cc1c(-c2ccnc(N[C@@H](C)c3cc4cc(Cl)ccc4[nH]c3=O)n2)cnn1C ?
100 to 1000 nM

Quick one: IC50 of CC(C)n1cncc1-c1ccnc(N[C@@H](C)c2cc3cc(Cl)ccc3[nH]c2=O)n1 ?
100 to 1000 nM

Quick one: IC50 of C[C@H](Nc1nccc(C(N)=O)n1)c1cc2cc(Cl)ccc2[nH]c1=O ?
100 to 1000 nM

Here is the next item to consider.
Quick one: IC50 of Cc1ncccc1-c1ccnc(N[C@@H](C)c2cc3cc(Cl)ccc3[nH]c2=O)n1 ?
1000 to 10000 nM

* * *

MEASURED_TARGET: IDH1-R132H recombinant protein (Homo sapiens (Human), UniProt O75874, R132H)
Sequence (O75874 whole entry R132H): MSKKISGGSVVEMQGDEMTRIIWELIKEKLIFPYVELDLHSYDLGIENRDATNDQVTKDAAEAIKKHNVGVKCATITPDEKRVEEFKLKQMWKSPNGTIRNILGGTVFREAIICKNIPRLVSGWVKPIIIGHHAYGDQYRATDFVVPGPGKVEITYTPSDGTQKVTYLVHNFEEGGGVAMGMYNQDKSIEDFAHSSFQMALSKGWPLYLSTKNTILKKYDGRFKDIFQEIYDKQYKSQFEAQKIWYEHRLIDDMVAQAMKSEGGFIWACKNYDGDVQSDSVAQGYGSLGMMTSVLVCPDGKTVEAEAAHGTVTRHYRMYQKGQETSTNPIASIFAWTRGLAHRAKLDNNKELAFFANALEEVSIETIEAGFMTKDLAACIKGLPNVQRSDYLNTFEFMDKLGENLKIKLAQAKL
PROTOCOL: IDH1-R132H enzymatic assay (inhibition of NADPH consumption, diaphorase/resazurin readout)
APPLIED_CONDITIONS: read-out: Enzyme IDH1 R132H IC50 (Range)
pIC50: −log10 of the molar value.
ENDPOINT_LABEL: pIC50

Quick one: pIC50 of C[C@H](Nc1ncc(C#N)c(O)n1)c1cc2cc(Cl)c(OCc3ccccn3)cc2[nH]c1=O ?
> 7.00

Quick one: pIC50 of COc1cc2[nH]c(=O)c([C@@H](C)Nc3ncc(C#N)c(OC)n3)cc2cc1Cl ?
6.00 to 7.00

Quick one: pIC50 of COc1nc(N[C@@H](C)c2cc3cc(Cl)c(F)cc3[nH]c2=O)ncc1C#N ?
> 7.00

Quick one: pIC50 of CC(C)C[S@+]([O-])c1ccnc(N[C@@H](C)c2cc3cc(Cl)ccc3[nH]c2=O)n1 ?
> 7.00

Quick one: pIC50 of C[C@H](Nc1nccc([S@+](C)[O-])n1)c1cc2cc(Cl)ccc2[nH]c1=O ?
> 7.00

New cases:
Quick one: pIC50 of C[C@H](Nc1nccc(N(C2CC2)S(C)(=O)=O)n1)c1cc2cc(Cl)ccc2[nH]c1=O ?
6.00 to 7.00

Quick one: pIC50 of Cc1c(-c2ccnc(N[C@@H](C)c3cc4cc(Cl)ccc4[nH]c3=O)n2)cnn1C ?
6.00 to 7.00

Quick one: pIC50 of O=C1OCCN1c1ccnc(NC(CF)c2cc3cc(Cl)ccc3[nH]c2=O)n1 (centres unmarked) ?
< 5.00

Quick one: pIC50 of C[C@H](Nc1nccc(N2CCN(C)C2=O)n1)c1cc2cc(Cl)ccc2[nH]c1=O ?
6.00 to 7.00

Quick one: pIC50 of CC(C)[C@H]1COC(=O)N1c1ccnc(N[C@@H](C)c2cc3cc(Cl)ccc3[nH]c2=O)n1 ?
> 7.00

Quick one: pIC50 of COc1nc(N[C@@H](C)c2cc3cc(Cl)c(OCC4CC4)cc3[nH]c2=O)ncc1C#N ?
> 7.00

Quick one: pIC50 of C[C@H](Nc1nccc(-c2ccn[nH]2)n1)c1cc2cc(Cl)ccc2[nH]c1=O ?
6.00 to 7.00

Quick one: pIC50 of CC(=O)N(c1ccnc(N[C@@H](C)c2cc3cc(Cl)ccc3[nH]c2=O)n1)C1CC1 ?
6.00 to 7.00

* * *

Reported pIC50 values are given for each entry in this list.
Tested on: HCT116 isogenic IDH1-R132C mutant cells
PROTOCOL: Cellular 2-HG assay using HCT116 mutant IDH1 cells (R132C), RapidFire mass spectrometry
Assay type: cell-based
APPLIED_CONDITIONS: Homo sapiens, HCT-116; cellular 2-HG level, HCT116 IDH1-R132C cells, 24 hours; read-out: HCT116 IDH1 R132C IC50 (Range)
pIC50: −log10 of the molar value.

Some solved cases for reference:
Quick one: pIC50 of C[C@H](Nc1nccc(-c2cncn2C)n1)c1cc2cc(Cl)ccc2[nH]c1=O ?
> 7.00

Quick one: pIC50 of CC(Nc1nccc(N(C(C)C)S(C)(=O)=O)n1)c1cc2cc(Cl)ccc2[nH]c1=O (centres unmarked) ?
6.00 to 7.00

Quick one: pIC50 of Cc1nnnn1-c1ccnc(N[C@@H](C)c2cc3cc(Cl)ccc3[nH]c2=O)n1 ?
6.00 to 7.00

Quick one: pIC50 of C[C@H](Nc1nccc(-c2cncn2CC(F)(F)F)n1)c1cc2cc(Cl)ccc2[nH]c1=O ?
6.00 to 7.00

New cases:
Quick one: pIC50 of CCC(=O)Nc1ccnc(N[C@@H](C)c2cc3cc(Cl)ccc3[nH]c2=O)n1 ?
6.00 to 7.00

Quick one: pIC50 of C[C@H](Nc1nccc(-c2ccnn2C2CCCCO2)n1)c1cc2cc(Cl)ccc2[nH]c1=O (some centres unmarked) ?
5.00 to 6.00

Quick one: pIC50 of CC(C)Cn1cncc1-c1ccnc(N[C@@H](C)c2cc3cc(Cl)ccc3[nH]c2=O)n1 ?
6.00 to 7.00
